Measured residual activity of individual entries
Biological target: PIM1 (human) (UniProt P11309)
Sequence (P11309 whole entry, looked up): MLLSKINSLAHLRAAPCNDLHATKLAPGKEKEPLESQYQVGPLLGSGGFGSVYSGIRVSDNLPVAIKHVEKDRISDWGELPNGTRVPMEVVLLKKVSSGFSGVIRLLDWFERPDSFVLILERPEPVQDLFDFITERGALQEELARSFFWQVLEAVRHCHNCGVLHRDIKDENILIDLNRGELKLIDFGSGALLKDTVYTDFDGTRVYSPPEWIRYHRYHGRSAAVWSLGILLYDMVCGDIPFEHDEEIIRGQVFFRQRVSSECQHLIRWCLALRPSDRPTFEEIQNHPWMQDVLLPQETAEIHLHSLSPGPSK
Test: radiometric filter-binding kinase assay
Settings: compound 0.1 µM

Kindly state the measured residual activity obtained for Cc1cccc(-c2nn(C(=S)Nc3ccccc3)cc2-c2ccnc3ccccc23)n1 with PIM1 (human) (UniProt P11309). 105%

Moving on to the next molecule: CCn1c(-c2nonc2N)nc2cncc(CNC3CCNCC3)c21 94%

Same question for CNc1nc(-c2ccc3c(N)n[nH]c3c2)cc(N2C[C@@H](C(=O)NC3CCCCC3)CC[C@H]2C)n1 please. 100%

Ok, now O=C(N[C@@H](COc1ccc2[nH]c(=O)[nH]c2c1)c1ccccc1)c1cccn(Cc2ccc(F)c(F)c2)c1=O 101%

Subsequent entry: Cc1ccc(-c2ccc3c(ccc4sc5c(c43)NC[C@@H](C)NC5=O)n2)cn1 93%

====

Entries and their measured residual activity follow.
Molecular target: CAMKK2 (human) (UniProt Q96RR4)
Sequence (Q96RR4 whole entry, looked up): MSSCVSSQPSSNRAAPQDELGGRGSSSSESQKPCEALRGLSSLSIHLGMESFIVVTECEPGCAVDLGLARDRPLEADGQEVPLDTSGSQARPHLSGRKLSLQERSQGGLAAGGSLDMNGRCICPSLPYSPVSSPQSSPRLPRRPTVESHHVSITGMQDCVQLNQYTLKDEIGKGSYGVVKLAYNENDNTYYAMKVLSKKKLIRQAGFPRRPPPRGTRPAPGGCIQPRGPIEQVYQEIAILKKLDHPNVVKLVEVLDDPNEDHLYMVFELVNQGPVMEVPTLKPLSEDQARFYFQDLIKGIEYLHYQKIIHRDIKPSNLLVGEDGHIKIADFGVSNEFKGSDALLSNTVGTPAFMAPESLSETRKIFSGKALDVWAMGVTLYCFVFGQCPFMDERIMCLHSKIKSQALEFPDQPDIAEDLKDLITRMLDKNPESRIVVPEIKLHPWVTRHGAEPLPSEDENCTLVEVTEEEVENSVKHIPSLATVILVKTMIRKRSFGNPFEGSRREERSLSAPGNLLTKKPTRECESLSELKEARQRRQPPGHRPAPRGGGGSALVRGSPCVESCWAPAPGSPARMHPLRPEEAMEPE
Assay: radiometric filter-binding kinase assay
Details: compound 0.1 µM
Answer with a number only, understood to be in %.

In the examples that follow, each entry is paired with its recorded residual activity.
# compound, experimental.system, result.unit, value.reported
data = [
    ("COc1ccc2c(c1)c1c3c(c4c5ccccc5n(C)c4c1n2CC(O)CN(C)C)C(=O)NC3=O (centres undefined)", "CAMKK2 (human) (UniProt Q96RR4)", "%", 113),
    ("c1ccc2c(-c3cnn4cc(-c5ccc(N6CCNCC6)cc5)cnc34)ccnc2c1", "CAMKK2 (human) (UniProt Q96RR4)", "%", 43),
]

Record request: residual activity value, item COc1cc(O)c2c(c1)/C=C/C[C@H](O)[C@H](O)C(=O)/C=C\C[C@H](C)OC2=O 87

Query O=C(Nc1ccccc1-c1cn2c(CN3CCNCC3)csc2n1)c1cnc2ccccc2n1 next 92

Thanks! And CCCCCc1ccc(/C=C/[C@H](O)[C@@H](CO)NC)cc1 ? 97

// repeat for CCc1cncnc1N1CCN(Cc2nc3cc(C(F)(F)F)ccc3[nH]2)CC1 and report 99

Then NC(=O)c1cc(-c2ccnc(NC3CCCCC3)c2)nc(N2CCNCC2)c1 ? 85

Also check O=C(NCCCNc1nc(Nc2cccc(CN3CCOCC3)c2)ncc1C1CC1)C1CCC1 58

What about this compound? Cn1c(=O)c2c(ncn2C)n(C)c1=O 104

====

Parameter: residual activity. Scope: all listed entries.
Biological target: NEK6 (human)
Experiment: radiometric filter-binding kinase assay
Conditions: compound 0.1 µM
Your answer should be a plain number; it is taken to be in %.

// solved cases for residual activity follow
# structure.notation, experimental.system, result.unit, residual activity
data = [
    ("O=C(N[C@@H](COc1ccc2[nH]c(=O)[nH]c2c1)c1ccccc1)c1cccn(Cc2ccc(F)c(F)c2)c1=O", "NEK6 (human)", "%", 104),
    ("COc1cc(O)c2c(c1)/C=C/C[C@H](O)[C@H](O)C(=O)/C=C\\C[C@H](C)OC2=O", "NEK6 (human)", "%", 122),
    ("COc1ccc(N(C(=O)Nc2c(C)cccc2C)c2cc(Nc3ccc(N4CCN(C)CC4)cc3)ncn2)c(OC)c1", "NEK6 (human)", "%", 90),
    ("CCn1c(-c2nonc2N)nc2cncc(CNC3CCNCC3)c21", "NEK6 (human)", "%", 103),
]

So what does the record say about residual activity for O=C(NCCCNc1nc(Nc2cccc(CN3CCOCC3)c2)ncc1C1CC1)C1CCC1 ? 94
